Below, each of the molecules is paired with its reported IC50 value.
Target: Epidermal growth factor receptor [DEL746-750] (Homo sapiens, UniProt P00533)
Sequence (P00533 with tags, fused parts or gaps DEL746-750 limits assumed, stated change not applied): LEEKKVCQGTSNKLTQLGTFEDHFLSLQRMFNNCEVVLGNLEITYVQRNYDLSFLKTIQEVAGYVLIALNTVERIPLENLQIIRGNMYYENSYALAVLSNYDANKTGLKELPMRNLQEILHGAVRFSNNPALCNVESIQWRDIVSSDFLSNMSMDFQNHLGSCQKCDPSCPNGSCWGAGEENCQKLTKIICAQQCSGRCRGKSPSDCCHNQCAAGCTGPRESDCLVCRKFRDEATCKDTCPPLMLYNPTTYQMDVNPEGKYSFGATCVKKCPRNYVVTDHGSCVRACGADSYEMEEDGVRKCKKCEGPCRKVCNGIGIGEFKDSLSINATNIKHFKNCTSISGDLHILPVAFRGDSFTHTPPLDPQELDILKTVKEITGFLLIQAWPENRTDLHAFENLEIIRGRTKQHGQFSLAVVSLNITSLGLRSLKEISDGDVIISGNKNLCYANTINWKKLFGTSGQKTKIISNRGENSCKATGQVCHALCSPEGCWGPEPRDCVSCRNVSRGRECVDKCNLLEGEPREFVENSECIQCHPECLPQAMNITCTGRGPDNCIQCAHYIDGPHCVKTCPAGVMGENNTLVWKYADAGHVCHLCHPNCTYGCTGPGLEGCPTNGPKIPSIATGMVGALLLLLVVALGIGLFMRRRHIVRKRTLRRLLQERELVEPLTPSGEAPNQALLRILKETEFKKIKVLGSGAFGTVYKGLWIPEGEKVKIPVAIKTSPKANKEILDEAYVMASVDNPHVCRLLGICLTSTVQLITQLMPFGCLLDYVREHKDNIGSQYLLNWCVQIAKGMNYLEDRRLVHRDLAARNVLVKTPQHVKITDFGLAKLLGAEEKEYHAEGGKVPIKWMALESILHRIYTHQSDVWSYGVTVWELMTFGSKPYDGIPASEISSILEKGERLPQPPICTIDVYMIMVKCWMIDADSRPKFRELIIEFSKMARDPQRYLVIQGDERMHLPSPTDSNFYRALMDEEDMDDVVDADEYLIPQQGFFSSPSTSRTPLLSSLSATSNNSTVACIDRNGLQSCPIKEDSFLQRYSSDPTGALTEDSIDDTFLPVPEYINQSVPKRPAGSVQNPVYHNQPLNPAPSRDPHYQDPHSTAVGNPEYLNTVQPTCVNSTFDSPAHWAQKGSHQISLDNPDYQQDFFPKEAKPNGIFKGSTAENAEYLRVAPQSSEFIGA
Assay: Inhibitory Activity of Compounds Against EGFR Mutant Enzyme

Worked cases, answers included:
smiles-input: Cc1cccc(Nc2nc(Cl)ncc2Cl)c1NS(C)(=O)=O
observed-value: < 1 nM
//
smiles-input: Cc1cccc(Nc2nc(Cl)ncc2Cl)c1N(C)S(C)(=O)=O
observed-value: 3 nM
//
smiles-input: C=CC(=O)Nc1cc(N)c(OC)cc1OCCN(C)C
observed-value: < 1 nM
//
smiles-input: C=CC(=O)Nc1cc(Nc2ncc(Cl)c(Nc3cccc4c3N(S(C)(=O)=O)CCC4)n2)c(OC)cc1N(C)CCN(C)C(=O)OC(C)(C)C
observed-value: < 1 nM
//
smiles-input: Cc1cnc(Cl)nc1Nc1ccccc1NS(=O)(=O)c1ccccc1
observed-value: < 1 nM
//
smiles-input: CCN(c1c(C)cccc1Nc1nc(Cl)ncc1Cl)S(C)(=O)=O
observed-value: 0.1 nM

Data request: Entry C=CC(=O)Nc1cc(N)c(OC)cc1OCCN1CCCC1 : reported IC50 = ?
Data returned: < 1 nM

Data request: Another: CS(=O)(=O)Nc1c(Nc2nc(Cl)ncc2Cl)ccc2nccnc12
Data returned: < 1 nM
